System: M14 melanoma
assay-details: NCI-60 one-dose screen, 48 h (100 = growth as untreated, 0 = no growth, -100 = all killed)
condition-summary: 10 µM unless noted
Compounds without any hit were thinned out: in the full panel of roughly 83,000, 20% have a hit.
Measured growth values are reported for all entries that follow.
Report only the number, with the unit % understood.

# example entries with known answers
- compound: "COc1ccccc1/C=C/C=N/NC1=NC2C(S1)N(C)C(=O)N2c1ccccc1 (stereo unspecified)"
  reported: -12.1
- compound: "Cc1cn(-c2cc(NC(=O)c3cncc(C#Cc4cnc5ccc(OCCCS(C)(=O)=O)nn45)c3)cc(C(F)(F)F)c2)cn1"
  reported: 18
- compound: "CCCCCCNC(=O)Oc1ccc(/C(=C(\\C)c2ccc(Cl)cc2)c2ccc(OCCN(C)C)cc2)cc1"
  reported: 3.61
- compound: "O=S(=O)(Nc1ccc(-n2cnc3cc(-c4ccc(O)cc4)ccc32)cc1)C1CC1"
  reported: 96.6

Req: Returns the measured growth for the input compound. Input: O=C(Nc1ccccc1)Nc1nc2ccc([N+](=O)[O-])cc2s1
Resp: 13

Req: Record: Cn1cc(-c2nn3cc(-c4ccncc4)nc3s2)c2cc(Cl)ccc21
Resp: 52.5

###

Test system: SK-MEL-5 melanoma
assay-details: NCI-60 one-dose screen, 48 h (100 = growth as untreated, 0 = no growth, -100 = all killed)
condition-summary: 10 µM unless noted
This is part of a sample that, as a whole, favours compounds with a hit. Of some 83,000 tested, about 20% had one in any assay.
Measured growth values are reported for all entries that follow.
Report only the number, with the unit % understood.

# example entries with known answers
- mol-smiles: "C=CCn1c(SCC(=O)Nc2ccc(OC)cc2)nnc1-c1ccc(Cl)cc1"
  growth [%]: 96.4
- mol-smiles: "CNC(=O)c1c(NC(=O)c2ccc(F)cc2F)sc2c1CCC(=O)C2"
  growth [%]: -64.9
- mol-smiles: "Oc1ccc(CSc2nnc(-c3cnccn3)o2)c2cccnc12"
  growth [%]: -38.5
- mol-smiles: "COc1ccccc1N1CCN(C2=NN=C(c3cccc(Cl)c3)c3ccccc3C2)CC1"
  growth [%]: -6.03
- mol-smiles: "CN(C)C(=O)c1ccccc1-n1cnc2ccccc2c1=O"
  growth [%]: 101
- mol-smiles: "CNC(=O)c1cc(N2CCc3cc(NC(=O)Nc4ccc(Cl)c(Cl)c4)ccc32)ccn1"
  growth [%]: 74.5
- mol-smiles: "O=C1[C@H]2Cc3c([nH]c4ccccc34)[C@H](c3ccc(Cl)cc3)N2C(=O)CN1C1CCN(Cc2c(Cl)cccc2Cl)CC1"
  growth [%]: 66.3
- mol-smiles: "C/C(=N/Nc1nc(N/N=C(/C)c2ccc([N+](=O)[O-])cc2)nc(N2CCOCC2)n1)c1ccc([N+](=O)[O-])cc1"
  growth [%]: 67.1

Turning to the following compound.
Req: Returns the measured growth for the input compound. Input: Cc1ccc(Cc2cnc(NC(=O)/C(C#N)=C/c3ccc(-c4ccc(Cl)cc4)o3)s2)cc1
Resp: 92.4

###

Test system: BT-549 breast
assay-details: NCI-60 one-dose screen, 48 h
condition-summary: 10 µM unless noted
Compounds without any hit were thinned out: in the full panel of roughly 83,000, 20% have a hit. Active and inactive are the calls of the source. Rule for the calls: active = growth percent below 10; inactive = the rest.
Respond with a class label; see T (active), F (inactive)

- compound: "Cc1cc(C(=O)Nc2ccc(SC#N)cc2)c(C)o1"
  target-desc: "BT-549 breast"
  class: "F"
- compound: "O=C(COc1cccc2cccnc12)Nc1ccc(C(=O)/C=C/c2ccc(Cl)cc2)cc1"
  target-desc: "BT-549 breast"
  class: "F"
- compound: "CCN1C(=O)N(CC)C2C1NN=C1SC(c3ccccc3)=CC(=O)N12 (centres undefined)"
  target-desc: "BT-549 breast"
  class: "T"
- compound: "O=C(CN1CCN(c2cc(=O)n(-c3ccccc3)c3ccccc23)CC1)Nc1ccc([N+](=O)[O-])cc1"
  target-desc: "BT-549 breast"
  class: "F"
- compound: "C/C=C/[C@@H]1C=C[C@@H]2C[C@H](C)CC[C@H]2[C@]1(C)/C(O)=C1/C(=O)[C@H](CO)N(C)C1=O"
  target-desc: "BT-549 breast"
  class: "F"
- compound: "COc1ccc(NC(=O)Cn2cc(CN3C(=O)c4ccc([N+](=O)[O-])cc4C3=O)nn2)cc1"
  target-desc: "BT-549 breast"
  class: "F"
- compound: "O=C(Nc1ccccc1)Nc1nc2ccc([N+](=O)[O-])cc2s1"
  target-desc: "BT-549 breast"
  class: "T"
- compound: "CCCCCc1ccc(S(=O)(=O)N(C(C)=O)c2cccc(-c3csc(N(CCN4CCN(C)CC4)C(C)=O)n3)c2)cc1"
  target-desc: "BT-549 breast"
  class: "F"

We now examine a further compound.
Req: What did the test return for CC(=O)Nc1nc2c(s1)C1=CC[C@H]3[C@@H]4CC[C@H](C(C)=O)[C@@]4(C)CC[C@@H]3[C@@]1(C)CC2 ?
Resp: F

###

Tested on: OVCAR-8 ovarian
assay-details: NCI-60 one-dose screen, 48 h (100 = growth as untreated, 0 = no growth, -100 = all killed)
condition-summary: 10 µM unless noted
This is part of a sample that, as a whole, favours compounds with a hit. Of some 83,000 tested, about 20% had one in any assay. Active and inactive are the calls of the source. Rule for the calls: active = growth percent below 10; inactive = the rest.
property-name: growth

# example entries with known answers
- mol-smiles: "COC1=C(c2ccccc2)C(=O)C(OC)=C(c2ccccc2)C1=O"
  growth: "100% (inactive)"
- mol-smiles: "COc1ccc(-c2cc(-c3ccc(Cl)cc3)nc3nc(N)nn23)cc1"
  growth: "99.1% (inactive)"
- mol-smiles: "Cc1nn(-c2ccc(Cl)cc2)c(C)c1N=Nc1ccc2oc(=O)ccc2c1"
  growth: "56.9% (inactive)"
- mol-smiles: "C(=C(\\C1=NCCN1)n1cnc2ccccc21)/c1cccc2ccccc12"
  growth: "95.8% (inactive)"
- mol-smiles: "Cc1csc(Nc2cccc(Nc3nc(C)cs3)c2)n1"
  growth: "82.7% (inactive)"
- mol-smiles: "CN(C)c1ncc(/C=C2\\SC(=S)N(Cc3ccccc3Cl)C2=O)s1"
  growth: "95.8% (inactive)"

Req: Returns the measured growth for the input compound. Input: Nc1nc(-c2cccc([N+](=O)[O-])c2)c(N=Nc2ccccc2Cl)s1
Resp: 56.8% (inactive)

Req: Record: COc1ccc(/C=C/C(=O)c2nnn(-c3ccc(Br)cc3)c2C)cc1OC
Resp: 82.7% (inactive)

Req: Record: Clc1ccc(-c2nc3ccc(/C(=N\N=C\c4ccccc4)c4ccccc4)cc3[nH]2)cc1
Resp: 85.6% (inactive)

Req: Record: CS(=O)(=O)c1ccc(-c2nn(-c3ccccc3)cc2/C=C/C(=O)c2ccc(Br)cc2)cc1
Resp: 93.6% (inactive)

###

Tested on: DU-145 prostate
assay-details: NCI-60 one-dose screen, 48 h
condition-summary: 10 µM unless noted
The panel holds about 83,000 compounds, 20% with a hit somewhere; the sample as a whole holds those more often. Activity calls are given as the source filed them. How the source made its calls: active means growth percent below 10; inactive means the rest.
Respond with a class label; see YES (active), NO (inactive)

Answered examples (3):
- compound: "O=C1[C@H]2Cc3c([nH]c4ccccc34)[C@@H](c3ccc(Cl)cc3)N2C(=O)CN1C1CCN(Cc2c(Cl)cccc2Cl)CC1"
  class: "NO"
- compound: "CN(C)c1ccc(/C=N/Nc2nc(N/N=C/c3ccc(N(C)C)cc3)nc(N3CCOCC3)n2)cc1"
  class: "NO"
- compound: "COc1ccc(NS(=O)(=O)c2ccc(-c3cnc(C4CC4)o3)cc2)cc1Cl"
  class: "NO"

Req: What did the test return for COc1ccc(/C(C)=C(\c2ccc(Cl)cc2)c2ccc(OCCN)cc2)cc1 ?
Resp: NO

Req: Record: O=C1c2c(c3c4cc(Br)ccc4[nH]c3c3ccc4ccccc4c23)C(=O)N1CCN1CCNCC1
Resp: NO

Req: Record: COc1ccc(-c2nc3cc(Cl)c(Cl)cc3n2CC(=O)N=Nc2c(O)[nH]c3ccc(Cl)cc23)cc1
Resp: YES

Req: Record: COc1ccc(CN2C(=O)/C(=C/c3nc(CO)cs3)SC2=S)cc1
Resp: NO

Req: Record: C#CCOc1ccc(C(Nc2ccc(OC)cc2)c2nnnn2C2CCCCC2)cc1 (stereo unspecified)
Resp: NO

Req: Record: CC(C)(C)OC(=O)N1CCN(S(=O)(=O)/N=C2\NC(=O)NC2=C(Cl)Cl)CC1
Resp: NO

Req: Record: CCCCCCCCCC[C@@H](C)[C@@H]1CC(=O)N[C@H]([C@@H](C)O)C(=O)N[C@@H](C)C(=O)N[C@H](C)C(=O)N[C@@H](CCC(N)=O)C(=O)N[C@H](Cc2ccc(O)cc2)C(=O)N[C@@H](C(C)CC)C(=O)O1 (stereo partly specified)
Resp: NO

###

Test system: IGROV1 ovarian
assay-details: NCI-60 one-dose screen, 48 h
condition-summary: 10 µM unless noted
The panel holds about 83,000 compounds, 20% with a hit somewhere; the sample as a whole holds those more often. Active and inactive are the calls of the source. The calls were made as follows: active = growth percent below 10; inactive = the rest.
Respond with a class label; see active, inactive

- compound: "Cn1cc(-c2nn3cc(-c4cccnc4)nc3s2)c2cc(F)ccc21"
  class: "inactive"
- compound: "C/C(=C(/c1ccc(O)cc1)c1ccc(OCCN2CCCCCC2)cc1)c1ccccc1"
  class: "inactive"
- compound: "O=C(NCCCNc1cc(-c2cn(-c3ccccc3)nc2-c2cccc(O)c2)ccn1)Nc1cccc(C(F)(F)F)c1"
  class: "inactive"

We now examine a further compound.
Req: What did the test return for Cc1[nH]nc2ccc(-c3nc4cnc(N5CCN(C)CC5)cn4c3Nc3ccc(F)cc3Br)cc12 ?
Resp: inactive
